# Protocol: Pharmacokinetics of PEGylated protease inhibitor prodrugs in rats
# Format: in vivo, male Sprague-Dawley rats
# Condition Context: male, Sprague-Dawley, rat, in vivo, prodrug in plasma, read-out: t½(z) (converted)
Counter-ions that a name gives are not always drawn.
Give half-life for every item shown.
Give bare numbers, in h.

For record COCCOCCOCCOC(=O)N[C@H](C(=O)N[C@@H](Cc1ccccc1)[C@H](CN(Cc1ccc(-c2ccccn2)cc1)NC(=O)[C@@H](NC(=O)OC)C(C)(C)C)OC(=O)[C@H](Cc1ccccc1)NC(=O)[C@@H](N)CC(C)C)C(C)(C)C.Cl [Leu-Phe-mPEG3-Atazanavir, Leu-Phe-mPEG3-Atazanavir Hydrochloride] the listed half-life is 3.2

Recorded half-life (compound COCCOCCOCCOCCOCCOC(=O)N[C@H](C(=O)N[C@@H](Cc1ccccc1)[C@H](CN(Cc1ccc(-c2ccccn2)cc1)NC(=O)[C@@H](NC(=O)OC)C(C)(C)C)OC(=O)[C@H](CC(C)C)NC(=O)[C@@H](N)Cc1ccccc1)C(C)(C)C [Phe-Leu-mPEG5-Atazanavir HCl, Phe-Leu-mPEG5-Atazanavir Hydrochloride] ): 1.52

// switching to the query compound
// sample COCCOCCOCCOC(=O)N[C@H](C(=O)N[C@@H](Cc1ccccc1)[C@H](CN(Cc1ccc(-c2ccccn2)cc1)NC(=O)[C@@H](NC(=O)OC)C(C)(C)C)OC(=O)[C@H](Cc1ccccc1)NC(=O)[C@@H](N)C(C)C)C(C)(C)C [Val-Phe-mPEG3-Atazanavir, Val-Phe-mPEG3-Atazanavir Hydrochloride] , its half-life was 2.25
